Origin of values: paper PMC5705267

Target: GHSR1a (growth hormone secretagogue receptor 1a, ghrelin receptor) (Homo sapiens, UniProt Q92847)
Sequence (Q92847 whole entry): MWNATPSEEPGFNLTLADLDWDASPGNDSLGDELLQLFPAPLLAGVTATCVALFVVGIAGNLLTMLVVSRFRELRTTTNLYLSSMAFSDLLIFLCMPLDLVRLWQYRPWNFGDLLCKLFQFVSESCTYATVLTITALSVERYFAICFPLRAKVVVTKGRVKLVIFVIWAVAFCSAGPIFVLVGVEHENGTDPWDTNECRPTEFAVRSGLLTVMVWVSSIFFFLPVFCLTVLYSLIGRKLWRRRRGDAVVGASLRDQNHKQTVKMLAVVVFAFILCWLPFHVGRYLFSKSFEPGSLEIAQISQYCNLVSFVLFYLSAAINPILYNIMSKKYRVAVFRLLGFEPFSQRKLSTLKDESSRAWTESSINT
Test: aequorin Ca2+ mobilization, antagonism of L-692, […] in HEK293 cells
parameter-measured: IC50

Retrieve IC50 measured for Cc1nc2ccc(Oc3ccc(F)cc3)cc2c(=O)n1C[C@H]1CCCN(C(C)C)C1 [YIL781] and print it. 185 nM
